Entries and their measured MIC follow.
- Tested on: Mycobacterium tuberculosis
- assay_overview: Antimycobacterial activity against drug-susceptible Mycobacterium tuberculosis clinical isolate
- Assay type: functional
Give the value in µM but do not write µM after it.

Known MIC results, listed for orientation:
O=C(N/N=C/c1ccc(CSc2nc3ccccc3o2)cc1)c1ccncc1 = 0.2
O=C(NCc1ccc(CSc2nc3ccccc3o2)cc1)c1ccncc1 = 16

Task item: I have this compound here, "NNC(=O)c1ccncc1" , and I need its recorded MIC.
Reply: 0.5

* * *

- assay_overview: Cytotoxicity against African green monkey Vero cells assessed as cell viability at 10 ug/ml after 72 hrs by CCK8 assay (reference value: 100%)
- Assay type: cell-based
- experimental_context: chlorocebus sabaeus, read-out: Activity
endpoint: viability at 72 h, 10 ug/ml (%)
Give the value in % but do not write % after it.

O=C(N/N=C/c1ccc(CSc2nc3ccccc3o2)cc1)c1ccncc1 = 130
COc1cc(/C=N/NC(=O)c2ccncc2)ccc1O [FTIVAZIDE] = 95
O=C(N/N=C/c1ccc(CSc2nc3ccccc3s2)cc1)c1ccncc1 = 96

Task item: I have this compound here, "O=C(N/N=C/c1ccc(CSc2nc3ccccc3[nH]2)cc1)c1ccncc1" , and I need its recorded viability at 72 h, 10 ug/ml.
Reply: 107

* * *

- assay_overview: Cytotoxicity against African green monkey Vero cells assessed as cell viability at 0.078 ug/ml after 72 hrs by CCK8 assay (reference value: 100%)
- Format: cell-based
- experimental_context: chlorocebus sabaeus, read-out: Activity
Entries and their measured viability at 72 h, 0.078 ug/ml follow.
# do not omit the unit; it follows the number

Known viability at 72 h, 0.078 ug/ml results, listed for orientation:
O=C(N/N=C/c1ccc(CSc2nc3ccccc3s2)cc1)c1ccncc1 = 99%
O=C(N/N=C/c1ccc(CSc2nc3ccccc3o2)cc1)c1ccncc1 = 119%
COc1cc(/C=N/NC(=O)c2ccncc2)ccc1O [FTIVAZIDE] = 114%

Here's the next entry for you.
Task item: I have this compound here, "O=C(N/N=C/c1ccc(CSc2nc3ccccc3[nH]2)cc1)c1ccncc1" , and I need its recorded viability at 72 h, 0.078 ug/ml.
Reply: 116%

* * *

- assay_overview: Cytotoxicity against African green monkey Vero cells assessed as cell viability at 0.312 ug/ml after 72 hrs by CCK8 assay (reference value: 100%)
- Type: cell-based
- experimental_context: chlorocebus sabaeus, read-out: Activity
endpoint: viability at 72 h, 0.312 ug/ml (%)
Give the value in % but do not write % after it.

O=C(N/N=C/c1ccc(CSc2nc3ccccc3[nH]2)cc1)c1ccncc1 = 111

Task item: I have this compound here, "O=C(N/N=C/c1ccc(CSc2nc3ccccc3o2)cc1)c1ccncc1" , and I need its recorded viability at 72 h, 0.312 ug/ml.
Reply: 120

Task item: Request: "O=C(N/N=C/c1ccc(CSc2nc3ccccc3s2)cc1)c1ccncc1"
Reply: 98

Task item: Request: COc1cc(/C=N/NC(=O)c2ccncc2)ccc1O [FTIVAZIDE]
Reply: 103

* * *

- assay_overview: Stability in human liver microsomes assessed as parent compound remaining after 15 mins by LC-MS/MS analysis
- Format: ADME, microsome
- experimental_context: read-out: Stability
endpoint: remaining at 0.25 h (%)
Give the value in % but do not write % after it.

O=C(N/N=C/c1ccc(CSc2nc3ccccc3o2)cc1)c1ccncc1 = 90.1
O=C(N/N=C/c1ccc(CSc2nc3ccccc3s2)cc1)c1ccncc1 = 76.3

Here's the next entry for you.
Task item: I have this compound here, "O=C(N/N=C/c1ccc(CSc2nc3ccccc3[nH]2)cc1)c1ccncc1" , and I need its recorded remaining at 0.25 h.
Reply: 76.5

Measured values drawn from ChEMBL document CHEMBL4261527 for this set.
